- System: SF-295
- PROTOCOL: Growth inhibition of human SF295 cells after 48 hrs by sulforhodamine B assay
- Assay type: functional, cell-based
- EXPERIMENTAL CONDITIONS: SF-295, 48 h
ENDPOINT: IC50 (nM)
Answers are plain numbers, in nM.

# input compound: COc1cc(-c2nn(-c3cccc(NC(=O)Nc4ccc(Cl)c(C(F)(F)F)c4)c3)cc2-c2ccncc2)ccc1Cl ; wanted: its IC50
840

* * *

- Test system: OVCAR-3
- PROTOCOL: Growth inhibition of human OVCAR3 cells after 48 hrs by sulforhodamine B assay
- Assay type: functional, cell-based
- EXPERIMENTAL CONDITIONS: OVCAR-3, 48 h
I'd appreciate it if you could supply TGI values for the items below.
Give bare numbers, in nM.

Study these solved cases before continuing.
{"SMILES NOTATION": "COc1cc(-c2nn(-c3cccc(NC(=O)Nc4cc(C(F)(F)F)cc(C(F)(F)F)c4)c3)cc2-c2ccncc2)ccc1Cl", "SYSTEM TESTED": "OVCAR-3", "TGI / nM": 1230}
{"SMILES NOTATION": "O=C(Nc1cccc(-n2cc(-c3ccncc3)c(-c3ccc(Cl)c(O)c3)n2)c1)Nc1cccc(C(F)(F)F)c1", "SYSTEM TESTED": "OVCAR-3", "TGI / nM": 6130}

Okay, now this compound:
Notebook: pull reported TGI for OVCAR-3, entry O=C(Nc1cccc(-n2cc(-c3ccncc3)c(-c3ccc(Cl)c(O)c3)n2)c1)Nc1ccc(Cl)c(C(F)(F)F)c1
2090

* * *

- System: RPMI-8226
- PROTOCOL: Growth inhibition of human RPMI8226 cells after 48 hrs by sulforhodamine B assay
- Type: functional, cell-based
- EXPERIMENTAL CONDITIONS: RPMI-8226, 48 h
ENDPOINT: IC50
State the result as a value with its unit after it.

{"SMILES NOTATION": "O=C(Nc1cccc(-n2cc(-c3ccncc3)c(-c3ccc(Cl)c(O)c3)n2)c1)Nc1cccc(C(F)(F)F)c1", "SYSTEM TESTED": "RPMI-8226", "IC50": "1.34 µM"}
{"SMILES NOTATION": "COc1cc(-c2nn(-c3cccc(NC(=O)c4ccc(Cl)c(C(F)(F)F)c4)c3)cc2-c2ccncc2)ccc1Cl", "SYSTEM TESTED": "RPMI-8226", "IC50": "1.62 µM"}

Each compound below has a recorded value; state its IC50.
1. COc1cc(-c2nn(-c3cccc(NC(=O)Nc4ccc(Cl)c(C(F)(F)F)c4)c3)cc2-c2ccncc2)ccc1Cl
2. COc1cc(-c2nn(-c3cccc(NC(=O)Nc4cccc(C(F)(F)F)c4)c3)cc2-c2ccncc2)ccc1Cl
3. O=C(Nc1cccc(-n2cc(-c3ccncc3)c(-c3ccc(Cl)c(O)c3)n2)c1)c1ccc(N2CCOCC2)c(C(F)(F)F)c1
4. COc1cc(-c2nn(-c3cccc(NC(=O)Nc4cc(C(F)(F)F)cc(C(F)(F)F)c4)c3)cc2-c2ccncc2)ccc1Cl
5. O=C(Nc1cccc(-n2cc(-c3ccncc3)c(-c3ccc(Cl)c(O)c3)n2)c1)Nc1ccc(Cl)c(C(F)(F)F)c1

1. 0.87 µM
2. 0.34 µM
3. 1.4 µM
4. 0.31 µM
5. 0.58 µM

* * *

- Tested on: SF-295
- PROTOCOL: Growth inhibition of human SF295 cells after 48 hrs by sulforhodamine B assay
- Format: functional, cell-based
- EXPERIMENTAL CONDITIONS: SF-295, 48 h
ENDPOINT: TGI (nM)
Answers are plain numbers, in nM.

Study these solved cases before continuing.
{"SMILES NOTATION": "O=C(Nc1cccc(-n2cc(-c3ccncc3)c(-c3ccc(Cl)c(O)c3)n2)c1)Nc1ccc(Cl)c(C(F)(F)F)c1", "U": "nM", "TGI": 2060}
{"SMILES NOTATION": "COc1cc(-c2nn(-c3cccc(NC(=O)c4cccc(C(F)(F)F)c4)c3)cc2-c2ccncc2)ccc1Cl", "U": "nM", "TGI": 3000}
{"SMILES NOTATION": "COc1cc(-c2nn(-c3cccc(NC(=O)c4ccc(Cl)c(C(F)(F)F)c4)c3)cc2-c2ccncc2)ccc1Cl", "U": "nM", "TGI": 17300}

Okay, now this compound:
Notebook: pull reported TGI for SF-295, entry COc1cc(-c2nn(-c3cccc(NC(=O)Nc4cccc(C(F)(F)F)c4)c3)cc2-c2ccncc2)ccc1Cl
1130

* * *

- Test system: BT-549
- PROTOCOL: Growth inhibition of human BT549 cells assessed as cell growth at 5X10'-7 M after 48 hrs by sulforhodamine B assay
- Format: functional
- EXPERIMENTAL CONDITIONS: BT-549, 48 h, read-out: Activity
I'd appreciate it if you could supply growth at 0.5 µM values for the items below.
State the result as a value with its unit after it.

{"SMILES NOTATION": "COc1cc(-c2nn(-c3cccc(NC(=O)c4cccc(C(F)(F)F)c4)c3)cc2-c2ccncc2)ccc1Cl", "SYSTEM TESTED": "BT-549", "growth at 0.5 µM": "102%"}
{"SMILES NOTATION": "O=C(Nc1cccc(-n2cc(-c3ccncc3)c(-c3ccc(Cl)c(O)c3)n2)c1)c1ccc(N2CCOCC2)c(C(F)(F)F)c1", "SYSTEM TESTED": "BT-549", "growth at 0.5 µM": "111%"}
{"SMILES NOTATION": "COc1cc(-c2nn(-c3cccc(NC(=O)Nc4ccc(Cl)c(Cl)c4)c3)cc2-c2ccncc2)ccc1Cl", "SYSTEM TESTED": "BT-549", "growth at 0.5 µM": "97%"}

# input compound: O=C(Nc1cccc(-n2cc(-c3ccncc3)c(-c3ccc(Cl)c(O)c3)n2)c1)Nc1cc(C(F)(F)F)cc(C(F)(F)F)c1 ; wanted: its growth at 0.5 µM
109%

* * *

I'd appreciate it if you could supply GI50 values for the items below.
- System: MDA-MB-468
- PROTOCOL: Growth inhibition of human MDA-MB-468 cells after 48 hrs by sulforhodamine B assay
- Type: functional, cell-based
- EXPERIMENTAL CONDITIONS: MDA-MB-468, 48 h
Answers are plain numbers, in nM.

Study these solved cases before continuing.
{"SMILES NOTATION": "COc1cc(-c2nn(-c3cccc(NC(=O)Nc4ccc(Cl)c(C(F)(F)F)c4)c3)cc2-c2ccncc2)ccc1Cl", "U": "nM", "GI50": 833}
{"SMILES NOTATION": "COc1cc(-c2nn(-c3cccc(NC(=O)Nc4ccc(Cl)c(Cl)c4)c3)cc2-c2ccncc2)ccc1Cl", "U": "nM", "GI50": 567}
{"SMILES NOTATION": "O=C(Nc1cccc(-n2cc(-c3ccncc3)c(-c3ccc(Cl)c(O)c3)n2)c1)Nc1cccc(C(F)(F)F)c1", "U": "nM", "GI50": 980}
{"SMILES NOTATION": "O=C(Nc1cccc(-n2cc(-c3ccncc3)c(-c3ccc(Cl)c(O)c3)n2)c1)Nc1ccc(Cl)c(Cl)c1", "U": "nM", "GI50": 729}

Okay, now this molecule:
# input molecule: COc1cc(-c2nn(-c3cccc(NC(=O)Nc4cccc(C(F)(F)F)c4)c3)cc2-c2ccncc2)ccc1Cl ; wanted: its GI50
598

* * *

- Test system: RXF 393
- PROTOCOL: Growth inhibition of human RXF393 cells after 48 hrs by sulforhodamine B assay
- Type: functional
- EXPERIMENTAL CONDITIONS: RXF 393, 48 h
ENDPOINT: LC50 (concentration killing 50% of cells)

{"SMILES NOTATION": "O=C(Nc1cccc(-n2cc(-c3ccncc3)c(-c3ccc(Cl)c(O)c3)n2)c1)Nc1ccc(Cl)c(C(F)(F)F)c1", "RESULT": "> 32.5 µM"}
{"SMILES NOTATION": "O=C(Nc1cccc(-n2cc(-c3ccncc3)c(-c3ccc(Cl)c(O)c3)n2)c1)c1ccc(N2CCOCC2)c(C(F)(F)F)c1", "RESULT": "> 50 µM"}
{"SMILES NOTATION": "COc1cc(-c2nn(-c3cccc(NC(=O)Nc4ccc(Cl)c(Cl)c4)c3)cc2-c2ccncc2)ccc1Cl", "RESULT": "> 50 µM"}

Okay, now this compound:
# input compound: O=C(Nc1cccc(-n2cc(-c3ccncc3)c(-c3ccc(Cl)c(O)c3)n2)c1)Nc1cc(C(F)(F)F)cc(C(F)(F)F)c1 ; wanted: its LC50 (concentration killing 50% of cells)
10.7 µM

* * *

- Tested on: SNB-75
- PROTOCOL: Growth inhibition of human SNB75 cells after 48 hrs by sulforhodamine B assay
- Format: functional
- EXPERIMENTAL CONDITIONS: SNB-75, 48 h
I'd appreciate it if you could supply TGI values for the items below.
Numbers only, in µM.

{"SMILES NOTATION": "O=C(Nc1cccc(-n2cc(-c3ccncc3)c(-c3ccc(Cl)c(O)c3)n2)c1)Nc1ccc(Cl)c(C(F)(F)F)c1", "MEASURED NUMBER": 3.2}

Each compound below has a recorded value; state its TGI.
1. O=C(Nc1cccc(-n2cc(-c3ccncc3)c(-c3ccc(Cl)c(O)c3)n2)c1)Nc1cc(C(F)(F)F)cc(C(F)(F)F)c1
2. O=C(Nc1cccc(-n2cc(-c3ccncc3)c(-c3ccc(Cl)c(O)c3)n2)c1)Nc1ccc(Cl)c(Cl)c1

1: 2.18; 2: 12.2

Each compound below has a recorded value; state its TGI.
1. COc1cc(-c2nn(-c3cccc(NC(=O)Nc4cc(C(F)(F)F)cc(C(F)(F)F)c4)c3)cc2-c2ccncc2)ccc1Cl
2. COc1cc(-c2nn(-c3cccc(NC(=O)Nc4cccc(C(F)(F)F)c4)c3)cc2-c2ccncc2)ccc1Cl

1. 2.07
2. 4.5
